Tested on: COLO 205 colon
Test: NCI-60 one-dose screen, 48 h (100 = growth as untreated, 0 = no growth, -100 = all killed)
Conditions: 10 µM unless noted
Compounds without any hit were thinned out: in the full panel of roughly 83,000, 20% have a hit.
metric: growth (%)
Please reply with the bare figure in % and do not write the unit itself.

Use these answered entries as a reference point.
O=C(NNc1nc(Cl)nc(N2CCN(C(c3ccccc3)c3ccccc3)CC2)n1)c1ccccc1 :: 24.1
CC[C@H](CC[C@@H](C)[C@H]1CC[C@H]2[C@@H]3CC=C4C[C@@H](OCCc5nn[nH]n5)CC[C@]4(C)[C@H]3CC[C@]12C)C(C)C :: 118

Tell me reported growth for CC[N+](CC)(CCCC(C)[N+]1(Cc2ccccc2)C(C)=CC=C1C)Cc1ccccc1 (stereo not drawn) , tested with COLO 205 colon.
67.9
